B1: TPR t1 (parent)
chain: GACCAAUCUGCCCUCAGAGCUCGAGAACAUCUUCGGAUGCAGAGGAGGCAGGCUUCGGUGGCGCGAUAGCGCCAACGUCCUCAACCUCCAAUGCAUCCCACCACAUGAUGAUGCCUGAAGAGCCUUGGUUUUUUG

# Variants of: B1
# assay.protocol: polymerase ribozyme fitness, log enrichment relative to wild type (log ratio); higher = more active; in vitro selection for triplet polymerase activity
Field: polymerase ribozyme fitness (log ratio). Provide a value for each of the variants that follow.

Please supply the value of reported polymerase ribozyme fitness (log ratio) for the item A26U G39U G60C U78C G117C
-6.27

Please supply the value of reported polymerase ribozyme fitness (log ratio) for the item G17C G42A A74G A84C A91U
-4.35

Please supply the value of reported polymerase ribozyme fitness (log ratio) for the item G48A C73U C85A
-1.26

Please supply the value of reported polymerase ribozyme fitness (log ratio) for the item C89U A121G
-0.907

Please supply the value of reported polymerase ribozyme fitness (log ratio) for the item C12U C73U U81G C82G C123A
0.809

Please supply the value of reported polymerase ribozyme fitness (log ratio) for the item G17U U112C
-0.756

Please supply the value of reported polymerase ribozyme fitness (log ratio) for the item C8U G44C A83U
-0.336

The reported measurements were obtained from the RNAGym collection of RNA variant scans (doi:10.1073/pnas.2313332121).
